// provenance: ChEMBL document CHEMBL4390696

Recorded Dissociation rate constant (koff) values for a group of compounds are listed next.
Assay: Binding affinity to 5'-ATmCGGAT-3' DNA (unknown origin) assessed as dissociation rate constant incubated for 180 secs by SPR analysis
ASSAY_METRIC: Dissociation rate constant (koff)

>>> test_result("CC(=O)Nc1cc(C(=O)NCCC(=O)Nc2cn(C)c(C(=O)Nc3cc(C(=O)NCC[C@@H](N)C(=O)Nc4cc(C(=O)NCCC(=O)Nc5cn(C)c(C(=O)Nc6cn(C)c(C(=O)NCCC(=O)NCCCN(C)C)n6)n5)n(C)c4)n(C)c3)n2)n(C)c1")
"5.3 ×10⁻³ /s"
>>> test_result("CC(=O)Nc1cc(C(=O)Nc2cn(C)c(C(=O)NCCC(=O)Nc3cc(C(=O)NCCCC(=O)Nc4cn(C)c(C(=O)Nc5cn(C)c(C(=O)Nc6cc(C(=O)Nc7cc(C(=O)NCCC(=O)NCCCN(C)C)n(C)c7)n(C)c6)n5)n4)n(C)c3)n2)n(C)c1")
"2 ×10⁻¹ /s"
>>> test_result("CC(=O)Nc1cc(C(=O)Nc2cn(C)c(C(=O)NCCC(=O)Nc3cc(C(=O)NCC[C@H](N)C(=O)Nc4cn(C)c(C(=O)Nc5cn(C)c(C(=O)NCCC(=O)Nc6cc(C(=O)NCCC(=O)NCCCN(C)C)n(C)c6)n5)n4)n(C)c3)n2)n(C)c1")
"5.8 ×10⁻³ /s"
>>> test_result("CC(=O)Nc1cc(C(=O)NCCC(=O)Nc2cn(C)c(C(=O)Nc3cc(C(=O)NCCCC(=O)Nc4cc(C(=O)Nc5cc(C(=O)Nc6cn(C)c(C(=O)Nc7cn(C)c(C(=O)NCCC(=O)NCCCN(C)C)n7)n6)n(C)c5)n(C)c4)n(C)c3)n2)n(C)c1")
"1.5 ×10⁻² /s"
>>> test_result("CC(=O)Nc1cc(C(=O)Nc2cn(C)c(C(=O)Nc3cc(C(=O)Nc4cc(C(=O)NCCCC(=O)Nc5cn(C)c(C(=O)Nc6cn(C)c(C(=O)Nc7cc(C(=O)Nc8cc(C(=O)NCCC(=O)NCCCN(C)C)n(C)c8)n(C)c7)n6)n5)n(C)c4)n(C)c3)n2)n(C)c1")
"2.6 ×10⁻⁴ /s"
>>> test_result("CC(=O)Nc1cc(C(=O)Nc2cc(C(=O)Nc3cn(C)c(C(=O)Nc4cc(C(=O)NCCCC(=O)Nc5cc(C(=O)NCCC(=O)Nc6cn(C)c(C(=O)Nc7cn(C)c(C(=O)NCCC(=O)NCCCN(C)C)n7)n6)n(C)c5)n(C)c4)n3)n(C)c2)n(C)c1")
"2.3 ×10⁻² /s"
